Values compiled from the supplement of paper PMC10126150.

Test system: ATP;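 also: ATP exposure 15 min at 22 °C before imaging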
Test: switch fluorescence ratio, 500 uM ATP over buffer (Cy3 cluster intensity, sum of 5 cycles each) (fold (ratio)); higher = stronger signal-on switching upon ATP binding; sequences stand for … in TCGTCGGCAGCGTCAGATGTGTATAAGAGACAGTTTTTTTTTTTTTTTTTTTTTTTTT…TC
Settings: aptamer strand: ATP DNA aptamer (quencher-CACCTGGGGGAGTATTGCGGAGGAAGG + anchor), 100 nM annealed; ATP concentration: 500 uM
value.type: switch fluorescence ratio
Note: the reply should be a number with no unit written.

Guide cases for switch fluorescence ratio, answers given:
1. TATACTCAGG; 1.05
2. TGAGTTAGAG; 1.02
3. GGGAAGGTCT; 0.994
4. TCAATGTGCG; 1.01

Request: Check the records and state switch fluorescence ratio for `CGGTAGGATG`
Response: 0.971

Request: Tell me its switch fluorescence ratio given `GTGGCAAGTT` as the entry.
Response: 0.97

Request: Specify switch fluorescence ratio for `TTGACCCAGG` and stop.
Response: 1.23

Request: Output measured switch fluorescence ratio for this item: `ATATTTACTA`
Response: 1.11

Request: Query switch fluorescence ratio for `AAAAGGTGAA`
Response: 1.04

Request: Report switch fluorescence ratio, nothing else, for this sequence: `ATTGTTTTCG`
Response: 1

Request: Output measured switch fluorescence ratio for this item: `TGCGCCTCAG`
Response: 1.08

Request: Indicate the recorded switch fluorescence ratio value for this sequence: `CCACGTTGAA`
Response: 1.05

Request: Given the sequence `AACTATGGTC` , write its reported switch fluorescence ratio.
Response: 1.01
